Data origin: BigSolDB 2.1

Settings: in acetonitrile, 298.15 K
Measured metric: solubility (mole fraction)
When you answer, write just the number.

// solubility (mole fraction) lookup, compound = `CCOC(=O)Cc1c(C(=O)OCC)sc(N(CC(=O)OCC)CC(=O)OCC)c1C#N` , result: 0.0334

====

Settings: in toluene, 285.65 K
Measured metric: solubility (mole fraction)

According to the records, this compound `CCOC(=O)Cc1c(C(=O)OCC)sc(N(CC(=O)OCC)CC(=O)OCC)c1C#N` displays solubility (mole fraction) of 0.014

====

Settings: in methanol, 313.15 K
Measured metric: solubility (mole fraction)
Give a plain numeric answer without units written out.

Lab note: `CCOC(=O)Cc1c(C(=O)OCC)sc(N(CC(=O)OCC)CC(=O)OCC)c1C#N` gave solubility (mole fraction) of 0.0109
